Target System: UniProtKB P10636
Sequence (P10636 623-695 limits assumed): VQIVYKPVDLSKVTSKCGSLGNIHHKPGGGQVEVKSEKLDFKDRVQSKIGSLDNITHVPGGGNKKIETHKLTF
Assay Protocol: MCE Phenols Library screening, tau biosensor cell seeding assay (AvZ)
Format: cell-based
Measurement Parameters: average Z score of the two replicates, tau seeding
Property Measured: av Z
Answer with the value's number alone.

Field av Z (UniProtKB P10636), entry C/C=C/c1cc(OC)c2c(c1)C(C)C(c1ccc(O)c(OC)c1)O2 (stereo not shown) [Dehydrodiisoeugenol] : 0.627

Field av Z (UniProtKB P10636), entry O=C(O)[C@H]1O[C@@H](Oc2c(-c3ccc(O)cc3)oc3cc(O)cc(O)c3c2=O)[C@H](O)[C@@H](O)[C@@H]1O [Kaempferol 3-O-?-D-glucuronide] : 0.548

Field av Z (UniProtKB P10636), entry OC[C@H]1O[C@@H](Oc2cc(/C=C/c3cc(O)cc(O)c3)ccc2O)[C@H](O)[C@@H](O)[C@@H]1O [Piceatannol 3'-O-glucoside] : 0.407

Field av Z (UniProtKB P10636), entry CCc1c(Cl)c(O)c(Cl)c(O)c1C(=O)O[C@H]1[C@H](O)[C@H](OC)[C@H](OC/C2=C\C=C\C[C@H](O)/C(C)=C/[C@H](CC)[C@@H](O[C@@H]3OC(C)(C)[C@@H](OC(=O)C(C)C)[C@H](O)[C@@H]3O)/C(C)=C/C(C)=C/C[C@@H]([C@@H](C)O)OC2=O)O[C@@H]1C [Fidaxomicin] : 0.537

Field av Z (UniProtKB P10636), entry C=CCc1ccc(O)c(-c2cc(CC=C)ccc2O)c1 [Magnolol] : 0.685

Field av Z (UniProtKB P10636), entry COc1ccc(/C=C/c2cc(O)cc(O[C@@H]3O[C@H](CO)[C@@H](O)[C@H](O)[C@H]3O)c2)cc1 [Desoxyrhaponticin] : 0.286

Field av Z (UniProtKB P10636), entry COc1cc(-c2cc(=O)c3c(O)cc(O)cc3o2)ccc1O [Chrysoeriol] : 0.21

Field av Z (UniProtKB P10636), entry COc1ccc2c(c1)OC[C@@H](c1cc(O)c(OC)c(OC)c1O)C2 [Colutehydroquinone] : 0.683

Field av Z (UniProtKB P10636), entry C[C@]12CC[C@@H]3c4ccc(O)cc4CC[C@H]3[C@@H]1C[C@@H](O)[C@@H]2O [Estriol] : 0.322

Field av Z (UniProtKB P10636), entry COc1ccc(-c2cc(=O)c3c(O)c(OC)c(O)cc3o2)cc1 [Pectolinarigenin] : 0.385

Field av Z (UniProtKB P10636), entry Oc1ccc(OC2CCCCO2)cc1 (stereo not shown) [Deoxyarbutin] : 0.214

Field av Z (UniProtKB P10636), entry CC(C)=CCc1c(-c2ccc(O)cc2O)oc2c([C@H]3C=C(C)C[C@@H](c4ccc(O)cc4O)[C@@H]3C(=O)c3ccc(O)cc3O)c(O)cc(O)c2c1=O [Kuwanon G] : 0.346

Field av Z (UniProtKB P10636), entry COc1cc(OC)c(CCC(=O)c2ccc(O)cc2)c(OC)c1 [Loureirin B] : 0.631

Field av Z (UniProtKB P10636), entry COc1cc2c(cc1O)CC[n+]1cc3c(OC)c(OC)ccc3cc1-2.[Cl-] [Jatrorrhizine (chloride)] : 0.221

Field av Z (UniProtKB P10636), entry O=C(O)c1cc(O)c2c(c1)C(=O)c1cccc(O[C@@H]3O[C@H](CO)[C@@H](O)[C@H](O)[C@H]3O)c1C2=O [Rhein 8-Glucoside] : 0.537

Field av Z (UniProtKB P10636), entry COc1c2ccoc2nc2c(O)cccc12 [Robustine] : 0.509

Field av Z (UniProtKB P10636), entry O=C(/C=C/c1ccc(O)cc1)CC(=O)/C=C/c1ccc(O)cc1 [Bisdemethoxycucurmin] : 0.24

Field av Z (UniProtKB P10636), entry COc1ccc(-c2oc3c(CC=C(C)C)c(O[C@@H]4O[C@H](CO)[C@@H](O)[C@H](O)[C@H]4O)cc(O)c3c(=O)c2O[C@@H]2O[C@@H](C)[C@H](O)[C@@H](O)[C@H]2O[C@@H]2OC[C@@H](O)[C@H](O)[C@H]2O)cc1 [Epimedin B] : 0.42

Field av Z (UniProtKB P10636), entry CC(C)=CCc1c(O[C@@H]2O[C@H](CO)[C@@H](O)[C@H](O)[C@H]2O)cc(O)c2c(=O)c(O[C@@H]3O[C@@H](C)[C@H](O)[C@@H](O)[C@H]3O)c(-c3ccc(O)cc3)oc12 [Epimedoside A] : 0.2

Field av Z (UniProtKB P10636), entry CC(C)=CCc1c(O)cc2c(c1O)C(=O)C[C@@H](c1ccc(O)cc1)O2 [(2S)-6-Prenylnaringenin] : 0.137

Field av Z (UniProtKB P10636), entry O=c1c(-c2ccc(O)cc2)coc2cc(O[C@@H]3O[C@H](CO)[C@@H](O)[C@H](O)[C@H]3O)cc(O)c12 [Genistin] : 0.406

Field av Z (UniProtKB P10636), entry CC(C)=CCc1cc(-c2coc3cc(O)ccc3c2=O)ccc1O [Neobavaisoflavone] : 0.134

Field av Z (UniProtKB P10636), entry COc1ccc(-c2oc3c(CC=C(C)C)c(O)cc(O)c3c(=O)c2O)cc1 [Icaritin] : 0.525

Field av Z (UniProtKB P10636), entry O=c1cc(O)cc(/C=C/c2ccc(O)c(O)c2)o1 [Hispidin] : 0.287

Field av Z (UniProtKB P10636), entry COc1ccc(/C=C/c2cc(O)cc(O)c2)cc1 [4'-Methoxyresveratrol] : 0.606

Field av Z (UniProtKB P10636), entry C#C[C@]1(O)CC[C@H]2[C@@H]3CCc4cc(O)ccc4[C@H]3CC[C@@]21C [Ethynyl Estradiol] : 0.391

Field av Z (UniProtKB P10636), entry O=C1C[C@@H](c2cc(O)c(O)c(O[C@@H]3O[C@H](CO)[C@@H](O)[C@H](O)[C@H]3O)c2)Oc2cc(O)cc(O)c21 [Plantagoside] : 0.153

Field av Z (UniProtKB P10636), entry O=c1cc(-c2ccc(O)cc2)oc2cc(O[C@@H]3O[C@H](CO)[C@@H](O)[C@H](O)[C@H]3O[C@@H]3OC[C@](O)(CO)[C@H]3O)cc(O)c12 [Apiin] : 0.719
